Data origin, for the record: PubChem BioAssay AID1159580

test: chemical genetic growth profiling, strain panel (AID 1159580);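 further: tested at 20 µM; growth read once vehicle control cultures reached saturation at 30 °C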; settings: S. cerevisiae deletion strains, growth OD, locus YDR335W, strain msn5
Among all 5,500 compounds or so, about 2,000 (36%) were called active. About 18% were inconclusive and are not listed. No stated cut-off is given here; in the data, active means normalized growth mostly below about 0.91 (no sharp cut-off); inconclusive means no clear call, values can overlap the other calls; inactive means mostly above about 0.92. The list shows a part of the results.
Outcomes: active, inactive

[
  {
    "COMPOUND": "CC(C)c1cccc(C(C)C)c1O",
    "CATEGORY_LABEL": "inactive"
  },
  {
    "COMPOUND": "NCCCC(O)(P(=O)(O)O)P(=O)(O)O",
    "CATEGORY_LABEL": "inactive"
  },
  {
    "COMPOUND": "CC(C)=CC1C(CO)C1(C)C (stereo unspecified)",
    "CATEGORY_LABEL": "inactive"
  },
  {
    "COMPOUND": "CC1(C)S[C@@H]2[C@H](NC(=O)[C@@H](N)c3ccc(O)cc3)C(=O)N2[C@H]1C(=O)O",
    "CATEGORY_LABEL": "inactive"
  },
  {
    "COMPOUND": "CNC[C@H](O)c1cccc(O)c1",
    "CATEGORY_LABEL": "inactive"
  },
  {
    "COMPOUND": "CCc1ccc2c(O)c3c(cc2c1C(=O)OC)C(=O)c1c(O)ccc(O)c1C3=O",
    "CATEGORY_LABEL": "inactive"
  },
  {
    "COMPOUND": "O=c1c(O)cc([C@H]2Oc3cc(O)cc(O)c3C[C@H]2O)cc2c([C@H]3Oc4cc(O)cc(O)c4C[C@H]3O)cc(O)c(O)c12",
    "CATEGORY_LABEL": "inactive"
  },
  {
    "COMPOUND": "Oc1ccc([C@H]2Oc3cc(O)cc(O)c3C[C@H]2O)cc1",
    "CATEGORY_LABEL": "inactive"
  },
  {
    "COMPOUND": "CC(C)c1cccc(O)c(=O)c1",
    "CATEGORY_LABEL": "active"
  },
  {
    "COMPOUND": "CC(C)C[C@@H](NC(=O)OCC1c2ccccc2-c2ccccc21)C(=O)O",
    "CATEGORY_LABEL": "inactive"
  },
  {
    "COMPOUND": "Nc1ccc(S(=O)(=O)Nc2ncccn2)cc1",
    "CATEGORY_LABEL": "inactive"
  }
]

====

experiment: chemical genetic growth profiling, strain panel (AID 1159580);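 further: tested at 20 µM; growth read once vehicle control cultures reached saturation at 30 °C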; settings: S. cerevisiae deletion strains, growth OD, locus YOL006C, strain TOP1, stronger effect = lower value
Among all 5,500 compounds or so, about 2,000 (36%) were called active. Not shown: some 18% with an inconclusive outcome. The list shows a part of the results.
For each record, check the reported normalized growth: if it is below 1 write Criterion met, else write Criterion not met.

[
  {
    "MOLECULE": "O=c1c(O)cc([C@H]2Oc3cc(O)cc(O)c3C[C@H]2O)cc2c([C@H]3Oc4cc(O)cc(O)c4C[C@H]3O)cc(O)c(O)c12",
    "CATEGORY_LABEL": "Criterion not met"
  },
  {
    "MOLECULE": "O=C(CCCN1CCC2(CC1)C(=O)NCN2c1ccccc1)c1ccc(F)cc1",
    "CATEGORY_LABEL": "Criterion met"
  },
  {
    "MOLECULE": "CC1CCCC(C)N1NC(=O)c1ccc(Cl)c(S(N)(=O)=O)c1 (stereo not drawn)",
    "CATEGORY_LABEL": "Criterion met"
  },
  {
    "MOLECULE": "COc1nc(NC(C)C)nc(NC(C)C)n1",
    "CATEGORY_LABEL": "Criterion not met"
  },
  {
    "MOLECULE": "CSCCC(N)C(=O)NC(CC(C)C)C(=O)NC(Cc1ccccc1)C(=O)O (stereo not drawn)",
    "CATEGORY_LABEL": "Criterion not met"
  },
  {
    "MOLECULE": "COC(=O)C(N)CS (stereo not drawn)",
    "CATEGORY_LABEL": "Criterion met"
  },
  {
    "MOLECULE": "CCOC(=O)/C(C#N)=C/Nc1ccc2c(c1)OCO2",
    "CATEGORY_LABEL": "Criterion met"
  },
  {
    "MOLECULE": "NC(=O)c1ccc([N+](=O)[O-])cc1Cl",
    "CATEGORY_LABEL": "Criterion met"
  },
  {
    "MOLECULE": "CC(C)Nc1nc(Cl)nc(NC(C)C)n1",
    "CATEGORY_LABEL": "Criterion not met"
  },
  {
    "MOLECULE": "COC(=O)C[C@H]1C(C)(C)[C@@H](O)[C@@H]2CC3=C4CC(O)O[C@@H](c5ccoc5)[C@]4(C)CCC3[C@@]1(C)C2=O (stereo partly drawn)",
    "CATEGORY_LABEL": "Criterion not met"
  },
  {
    "MOLECULE": "Oc1ccc2c3c1OC1[C@@H](O)CC[C@@]4(O)[C@@H](C2)N(CC2CCC2)CC[C@]314 (stereo partly drawn)",
    "CATEGORY_LABEL": "Criterion not met"
  },
  {
    "MOLECULE": "CC1=CC(=O)C2C(C)(C)CCC[C@]2(C)[C@@]1(O)CCc1ccoc1 (stereo partly drawn)",
    "CATEGORY_LABEL": "Criterion not met"
  },
  {
    "MOLECULE": "NC(=O)c1cc([N+](=O)[O-])cc([N+](=O)[O-])c1",
    "CATEGORY_LABEL": "Criterion met"
  },
  {
    "MOLECULE": "CC(C)(C)NCC(O)COc1cccc2c1C[C@H](O)[C@H](O)C2 (stereo partly drawn)",
    "CATEGORY_LABEL": "Criterion not met"
  }
]
